Below, each entry is listed with its recorded glycan array binding signal (z-score).
molecular target: Neu5Ac(a2-3)Gal(b1-3)GalNAc6S; test: glycan array binding signal (z-score within array); higher = stronger binding; conditions: glycan notation: IUPAC condensed, linker removed
This excerpt belongs to a sample that is enriched for the strongest signals.
Simply state the number, no unit and no words.

Binder	glycan array binding signal (z-score)
Epa23 (Candida glabrata) (protein) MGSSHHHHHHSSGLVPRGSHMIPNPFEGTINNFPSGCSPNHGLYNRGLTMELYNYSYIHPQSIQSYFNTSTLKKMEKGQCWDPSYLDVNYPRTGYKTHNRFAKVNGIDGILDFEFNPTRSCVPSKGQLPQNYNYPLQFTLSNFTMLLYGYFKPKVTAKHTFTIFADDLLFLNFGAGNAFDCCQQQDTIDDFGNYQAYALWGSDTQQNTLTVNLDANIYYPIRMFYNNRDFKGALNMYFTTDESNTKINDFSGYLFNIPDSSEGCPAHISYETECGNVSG	-0.246

Attention now shifts to the item below.
For this binder ( Epf (Streptococcus pyogenes) (protein) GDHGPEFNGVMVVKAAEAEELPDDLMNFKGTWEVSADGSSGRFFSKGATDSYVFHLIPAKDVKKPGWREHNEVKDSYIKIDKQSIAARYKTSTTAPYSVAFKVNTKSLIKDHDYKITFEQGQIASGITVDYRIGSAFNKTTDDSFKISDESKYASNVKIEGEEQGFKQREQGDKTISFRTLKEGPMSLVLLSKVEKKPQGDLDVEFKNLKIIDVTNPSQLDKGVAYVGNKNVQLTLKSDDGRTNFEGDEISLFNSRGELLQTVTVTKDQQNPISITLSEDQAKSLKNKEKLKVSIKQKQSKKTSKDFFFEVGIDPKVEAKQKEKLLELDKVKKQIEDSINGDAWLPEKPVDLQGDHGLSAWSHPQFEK ), measured glycan array binding signal (z-score) is 1.65
